tested_target: T1, hemagglutinin-tagged wild type human type 2 CCK receptor (human, UniProt P32239 1-447)
T1 sequence (looked up): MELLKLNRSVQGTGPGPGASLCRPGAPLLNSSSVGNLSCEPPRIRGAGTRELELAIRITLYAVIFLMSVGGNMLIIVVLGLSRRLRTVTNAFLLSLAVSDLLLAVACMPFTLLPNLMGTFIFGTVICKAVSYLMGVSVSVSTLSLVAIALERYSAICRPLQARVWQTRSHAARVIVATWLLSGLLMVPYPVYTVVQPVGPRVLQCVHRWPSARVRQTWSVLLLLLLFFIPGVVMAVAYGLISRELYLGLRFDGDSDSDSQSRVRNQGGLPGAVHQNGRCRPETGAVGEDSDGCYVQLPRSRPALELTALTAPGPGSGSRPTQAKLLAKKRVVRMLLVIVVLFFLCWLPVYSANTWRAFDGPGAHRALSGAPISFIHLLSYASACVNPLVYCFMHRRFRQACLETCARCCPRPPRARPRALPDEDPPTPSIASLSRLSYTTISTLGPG
assay_text: radioligand binding
Square brackets hold non-standard residues; d marks the D form. Ends that are not written are not given here. * marks the point of attachment. Benzoyl(4-benzoyl) = O=C(c1ccccc1)c1ccc(C(=O)*)cc1; Bpa = N[C@@H](Cc1ccc(C(=O)c2ccccc2)cc1)C(=O)O; Desaminotyrosyl = O=C(CCc1ccc(O)cc1)*; Nle = CCCC[C@H](N)C(=O)O
experimental_endpoint: IC50

The following binders have reported results that may help.
[Desaminotyrosyl]GDY[Nle]GWK(Benzoyl(4-benzoyl))DF (ends and bridges not checked) [(des-amino-Tyr)-Gly-[(Nle28,(BzBz)Lys31)CCK-26-33]]    > 1000 nM
[Desaminotyrosyl]GDY[Nle]GW[Nle][Bpa]F (ends and bridges not checked) [(des-amino-Tyr)-Gly-[(Nle28,Nle31,Bpa32)CCK-26-33]]    > 1000 nM

Now turn to the next binder.
Request: Identify measured IC50 corresponding to [Desaminotyrosyl]GDY[Nle]G[Bpa][Nle]DF (ends and bridges not checked) [(des-amino-Tyr)-Gly-[(Nle28,Bpa30,Nle31)CCK-26-33]]
Result: > 1000 nM
